System: HCT-116
protocolDetails: Antiproliferative activity against human HCT-116 cells incubated for 72 hrs by MTT assay
Format: functional, cell-based
experimentalContext: HCT-116, 72 h
outcomeMeasure: pIC50
Quick note: pIC50 means taking -log10 of the concentration in moles per liter.

smilesRepr: Cc1cc(C)c(CNC(=O)c2cc(-c3ccc(N4CCN(C(=O)C[C@@H]5N=C(c6ccc(Cl)cc6)c6c(sc(C)c6C)-n6c(C)nnc65)CC4)nc3)cc3c2cnn3C(C)C)c(=O)[nH]1
outcomeMeasure: pIC50
reading: 5.64

Could you now consider this next molecule?
Which pIC50 value belongs to Cc1cc(C)c(CNC(=O)c2cc(-c3ccc(N4CCN(C(=O)C[C@@H]5N=C(c6ccc(Cl)cc6)c6c(sc(C)c6C)-n6c(C)nnc65)CC4)cc3)cc3c2cnn3C(C)C)c(=O)[nH]1 ? 4.75
